# TEST SYSTEM: S1P1/EDG1 (Homo sapiens)
# TEST SUMMARY: S1P1 CRE-bla CHOK1 reporter assay, inhibition of Forskolin induced cAMP
# Format: cell-based
# PARTICULARS: agonist activity range, S1P1 CRE-bla CHOK1, 2 μM Forskolin; read-out: S1P1 ACTIVITY
Entries and their EC50

COMPOUND: COC(=O)CCNC1CCc2c(-c3noc(-c4ccc(OC(C)C)c(C#N)c4)n3)cccc21 (racemic)
EC50: 0.05 to 0.5 nM
--
COMPOUND: CC(C)C(=O)Oc1ccc(-c2nc(-c3cccc4c3CCC4NCCO)no2)cc1C#N (racemic)
EC50: > 5 nM
--
COMPOUND: CCS(=O)(=O)N[C@H]1CCc2c(-c3noc(-c4ccc(OC(C)C)c(C#N)c4)n3)cccc21
EC50: 0.5 to 5 nM
--
COMPOUND: CC(C)Oc1ccc(-c2nc(-c3cccc4c3CC[C@@H]4NCCCC(=O)O)no2)cc1C#N
EC50: < 0.05 nM
--
COMPOUND: N#Cc1cc(-c2nc(-c3cccc4c3CCC4NCCO)no2)ccc1OC[C@@H](O)CO (mixture of isomers)
EC50: > 5 nM
--
COMPOUND: CCOc1ccc(-c2nc(-c3cccc4c3CC[C@H]4O)no2)cc1C(F)(F)F
EC50: 0.5 to 5 nM
--
COMPOUND: CNC(=O)CN[C@@H]1CCc2c(-c3noc(-c4ccc(OC(C)C)c(C#N)c4)n3)cccc21
EC50: 0.05 to 0.5 nM

---

Entries and their EC50
# TEST SYSTEM: S1P1/EDG1 (Homo sapiens, UniProt P21453)
# Sequence (P21453 whole entry): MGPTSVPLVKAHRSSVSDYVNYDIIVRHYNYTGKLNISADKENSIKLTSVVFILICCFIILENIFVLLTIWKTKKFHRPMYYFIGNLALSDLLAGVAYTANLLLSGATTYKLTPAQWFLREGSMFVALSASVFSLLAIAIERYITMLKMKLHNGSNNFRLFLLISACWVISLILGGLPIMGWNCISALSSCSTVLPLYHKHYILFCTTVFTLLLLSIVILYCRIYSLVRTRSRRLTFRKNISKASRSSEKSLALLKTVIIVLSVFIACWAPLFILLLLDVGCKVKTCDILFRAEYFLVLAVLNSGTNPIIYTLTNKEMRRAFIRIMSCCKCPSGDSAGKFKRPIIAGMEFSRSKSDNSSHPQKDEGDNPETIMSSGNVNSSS
# TEST SUMMARY: S1P1 CRE-bla CHOK1 reporter assay, inhibition of Forskolin induced cAMP
# Format: cell-based
# PARTICULARS: agonist activity range, S1P1 CRE-bla CHOK1, 2 μM Forskolin; read-out: S1P1 ACTIVITY
Structures can show the parent of a compound that is named as a salt.

COMPOUND: COCCOc1ccc(-c2nc(-c3cccc4c3CCC4NCCO)no2)cc1C#N (racemic)
TEST SYSTEM: S1P1/EDG1 (Homo sapiens, UniProt P21453)
EC50: > 5 nM
--
COMPOUND: CC(C)Oc1ccc(-c2nc(-c3cccc4c3CC[C@H]4N)no2)cc1C#N [Compound 49, hydrochloride]
TEST SYSTEM: S1P1/EDG1 (Homo sapiens, UniProt P21453)
EC50: 0.05 to 0.5 nM
--
COMPOUND: CC(C)Oc1ccc(-c2nc(-c3cccc4c3CC[C@@H]4NC(=O)N3CC[C@@H](O)C3)no2)cc1C#N
TEST SYSTEM: S1P1/EDG1 (Homo sapiens, UniProt P21453)
EC50: 0.05 to 0.5 nM
--
COMPOUND: CC(=O)O[C@@H]1CCc2c(-c3noc(-c4ccc(OC(C)C)c(C#N)c4)n3)cccc21
TEST SYSTEM: S1P1/EDG1 (Homo sapiens, UniProt P21453)
EC50: 0.5 to 5 nM
--
COMPOUND: CC(C)Oc1ccc(-c2nc(-c3cccc4c3CC[C@@H]4N(C)CCO)no2)cc1C#N
TEST SYSTEM: S1P1/EDG1 (Homo sapiens, UniProt P21453)
EC50: 0.05 to 0.5 nM
--
COMPOUND: CC(C)Oc1ccc(-c2nc(-c3cccc4c3CC[C@@H]4NCc3ccccc3)no2)cc1C#N
TEST SYSTEM: S1P1/EDG1 (Homo sapiens, UniProt P21453)
EC50: 0.5 to 5 nM
--
COMPOUND: CCN(CC)C(=O)CN[C@@H]1CCc2c(-c3noc(-c4ccc(OC(C)C)c(C#N)c4)n3)cccc21
TEST SYSTEM: S1P1/EDG1 (Homo sapiens, UniProt P21453)
EC50: 0.5 to 5 nM
--
COMPOUND: CC(C)Oc1ccc(-c2nc(-c3cccc4c3CC[C@@H]4NC(=O)N3CCC(CO)CC3)no2)cc1C#N
TEST SYSTEM: S1P1/EDG1 (Homo sapiens, UniProt P21453)
EC50: 0.05 to 0.5 nM
--
COMPOUND: CC(C)Oc1ccc(-c2nc(-c3cccc4c3CCC4NC[C@@H](C)O)no2)cc1C#N (mixture of isomers)
TEST SYSTEM: S1P1/EDG1 (Homo sapiens, UniProt P21453)
EC50: 0.5 to 5 nM
--
COMPOUND: CC(C)Oc1ccc(-c2nc(-c3cccc4c3CC[C@@H]4NCC(=O)N(C)C)no2)cc1C(N)=O
TEST SYSTEM: S1P1/EDG1 (Homo sapiens, UniProt P21453)
EC50: > 5 nM
--
COMPOUND: CC(C)Oc1ccc(C#N)cc1-c1nc(-c2cccc3c2CC[C@H]3N)no1
TEST SYSTEM: S1P1/EDG1 (Homo sapiens, UniProt P21453)
EC50: > 5 nM
--
COMPOUND: CC(C)Oc1ccc(-c2nc(-c3cccc4c3CC[C@@H]4NS(=O)(=O)CC(=O)N3CCC(O)CC3)no2)cc1C#N
TEST SYSTEM: S1P1/EDG1 (Homo sapiens, UniProt P21453)
EC50: 0.05 to 0.5 nM
--
COMPOUND: CC(C)Oc1ccc(-c2nc(-c3cccc4c3CC[C@@H]4NS(=O)(=O)CC(N)=O)no2)cc1C#N
TEST SYSTEM: S1P1/EDG1 (Homo sapiens, UniProt P21453)
EC50: < 0.05 nM
--
COMPOUND: CCN(CCO)[C@@H]1CCc2c(-c3noc(-c4ccc(OC(C)C)c(C#N)c4)n3)cccc21
TEST SYSTEM: S1P1/EDG1 (Homo sapiens, UniProt P21453)
EC50: 0.05 to 0.5 nM
--
COMPOUND: CC(C)Oc1ccc(-c2nc(-c3cccc4c3CC[C@@H]4NCc3nc4ccccc4[nH]3)no2)cc1C#N
TEST SYSTEM: S1P1/EDG1 (Homo sapiens, UniProt P21453)
EC50: 0.5 to 5 nM
--
COMPOUND: CC(C)Oc1ccc(-c2nc(-c3cccc4c3CC[C@@H]4O)no2)cc1C(F)(F)F
TEST SYSTEM: S1P1/EDG1 (Homo sapiens, UniProt P21453)
EC50: 0.05 to 0.5 nM
--
COMPOUND: CC(C)Oc1ccc(-c2nc(-c3cccc4c3CC[C@H]4NCC(C)(C)O)no2)cc1C#N
TEST SYSTEM: S1P1/EDG1 (Homo sapiens, UniProt P21453)
EC50: 0.5 to 5 nM
--
COMPOUND: COC(=O)CCS(=O)(=O)N[C@H]1CCc2c(-c3noc(-c4ccc(OC(C)C)c(C#N)c4)n3)cccc21
TEST SYSTEM: S1P1/EDG1 (Homo sapiens, UniProt P21453)
EC50: 0.05 to 0.5 nM
--
COMPOUND: CC(C)Oc1ccc(-c2nc(-c3cccc4c3CC[C@H]4NCCS(C)(=O)=O)no2)cc1C#N
TEST SYSTEM: S1P1/EDG1 (Homo sapiens, UniProt P21453)
EC50: 0.05 to 0.5 nM
--
COMPOUND: CN[C@H]1CCc2c(-c3noc(-c4ccc(OC(C)C)c(C#N)c4)n3)cccc21
TEST SYSTEM: S1P1/EDG1 (Homo sapiens, UniProt P21453)
EC50: 0.05 to 0.5 nM
--
COMPOUND: CC(C)Oc1ccc(-c2nc(-c3cccc4c3CC[C@@H]4NS(=O)(=O)CC(=O)N3CC(O)C3)no2)cc1C#N
TEST SYSTEM: S1P1/EDG1 (Homo sapiens, UniProt P21453)
EC50: 0.05 to 0.5 nM
--
COMPOUND: CC(C)Oc1ccc(-c2nc(-c3cccc4c3CC[C@@H]4NS(=O)(=O)CCN3CC[C@H](O)C3)no2)cc1C#N
TEST SYSTEM: S1P1/EDG1 (Homo sapiens, UniProt P21453)
EC50: 0.5 to 5 nM
--
COMPOUND: CC(C)Oc1ccc(-c2nc(-c3cccc4c3CC[C@@H]4NS(=O)(=O)CC(=O)N3CCOCC3)no2)cc1C#N
TEST SYSTEM: S1P1/EDG1 (Homo sapiens, UniProt P21453)
EC50: 0.05 to 0.5 nM
